- Target Under Test: Sterol 24-C-methyltransferase (Yarrowia lipolytica) (UniProt Q6C2D9)
- Assay Remarks: Inhibition of Yarrowia lipolytica 24-SMT assessed as lanosterol-3-trimethylsilyl derivative at 0.2 ug/mL after 48 hrs by GC-MS analysis relative to untreated control
- Set-up: scale not given: the % may be the effect or the level left
Recorded Metric: Activity

// known answers, use as guide
C[C@H](/C=C/c1cccc[n+]1C)[C@H]1CC[C@H]2C3=CCC4C[C@@H](O)CC[C@]4(C)[C@H]3CC[C@]12C.[I-] (some centres undefined) : 0.3%
CC(C)C(C)NC[C@@H](C)[C@H]1CC[C@H]2C3=CC[C@H]4C[C@@H](O)CC[C@]4(C)[C@H]3CC[C@]12C (mixture of isomers) : 0.3%
CCCCN(C)C[C@@H](C)[C@H]1CC[C@H]2C3=CC[C@H]4C[C@@H](O)CC[C@]4(C)[C@H]3CC[C@]12C : 0.4%

Fill in Activity for record CC(=O)N1CCN(c2ccc(OCC3COC(Cn4ccnc4)(c4ccc(Cl)cc4Cl)O3)cc2)CC1 (centres undefined)
28.9%

----------
- Target Under Test: Sterol 24-C-methyltransferase (Yarrowia lipolytica)
- Sequence (whole entry): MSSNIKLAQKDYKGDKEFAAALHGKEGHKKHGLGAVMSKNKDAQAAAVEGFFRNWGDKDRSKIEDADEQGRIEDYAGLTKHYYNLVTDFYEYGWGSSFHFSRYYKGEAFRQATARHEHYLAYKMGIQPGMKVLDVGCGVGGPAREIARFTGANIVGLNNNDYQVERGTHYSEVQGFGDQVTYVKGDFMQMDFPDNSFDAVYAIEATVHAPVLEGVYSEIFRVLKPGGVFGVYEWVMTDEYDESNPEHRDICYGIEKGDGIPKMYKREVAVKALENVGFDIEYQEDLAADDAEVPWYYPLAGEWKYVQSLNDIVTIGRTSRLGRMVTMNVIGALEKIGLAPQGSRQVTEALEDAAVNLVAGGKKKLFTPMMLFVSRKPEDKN
- Assay Remarks: Inhibition of Yarrowia lipolytica 24-SMT assessed as 5-dehydroepisterol-3-trimethylsilyl derivative at 0.2 ug/mL after 48 hrs by GC-MS analysis relative to untreated control
- Design: scale not given: the % may be the effect or the level left
Recorded Metric: Activity (%)
Give just the number in %; leave the unit off.

// known answers, use as guide
CCNC[C@@H](C)[C@H]1CC[C@H]2C3=CC[C@H]4C[C@@H](O)CC[C@]4(C)[C@H]3CC[C@]12C : 2.8
CC(C)C(C)NC[C@@H](C)[C@H]1CC[C@H]2C3=CC[C@H]4C[C@@H](O)CC[C@]4(C)[C@H]3CC[C@]12C (mixture of isomers) : 4.6
C[C@H](/C=C/c1cccc[n+]1C)[C@H]1CC[C@H]2C3=CCC4C[C@@H](O)CC[C@]4(C)[C@H]3CC[C@]12C.[I-] (some centres undefined) : 1

// below: Activity requested for another molecule
Fill in Activity for record `CCCCN(C)C[C@@H](C)[C@H]1CC[C@H]2C3=CC[C@H]4C[C@@H](O)CC[C@]4(C)[C@H]3CC[C@]12C`
4.2

----------
- Target Under Test: Sterol 24-C-methyltransferase (Yarrowia lipolytica) (UniProt Q6C2D9)
- Assay Remarks: Inhibition of Yarrowia lipolytica 24-sterol C-methyltransferase assessed as ergosterol-3-trimethylsilyl derivative level at 0.06 ug/mL after 48 hrs by GC-MS analysis relative to untreated control
- Parameters: scale not given: the % may be the effect or the level left
// Activity lookup, one value per entry
Give just the number in %; leave the unit off.

C[C@H](/C=C/c1cc[n+](C)cc1)[C@H]1CCC2C3=CCC4C[C@@H](O)CC[C@]4(C)C3CC[C@@]21C.[I-] (some centres undefined) : 11.8
CCCNCC[C@@H](C)[C@H]1CC[C@H]2C3=CC[C@H]4C[C@@H](O)CC[C@]4(C)[C@H]3CC[C@]12C : 5

Fill in Activity for record C[C@H](/C=C/c1cccc[n+]1C)[C@H]1CC[C@H]2C3=CCC4C[C@@H](O)CC[C@]4(C)[C@H]3CC[C@]12C.[I-] (some centres undefined)
15

Fill in Activity for record `CCCCCNC[C@@H](C)[C@H]1CC[C@H]2C3=CC[C@H]4C[C@@H](O)CC[C@]4(C)[C@H]3CC[C@]12C`
4.9
